These data points were gathered from ChEMBL document CHEMBL3352615.

measurement protocol: Selectivity ratio of IC50 for rat L6 cells to IC50 for human A549 cells
Assay type: ADME, cell-based
details: L6 cells and A549 cells, read-out: Ratio IC50
measurement type: selectivity ratio
Give only the figure.

Examples with their reported selectivity ratio follow.
COc1cc([C@@H]2c3cc4c(cc3[C@@H](OCc3ccc(CO[C@@H]5c6cc7c(cc6[C@@H](c6cc(OC)c(O)c(OC)c6)[C@H]6C(=O)OC[C@@H]65)OCO7)cc3)[C@H]3COC(=O)[C@H]23)OCO4)cc(OC)c1O ... 1.7
COc1cc([C@@H]2c3cc4c(cc3[C@@H](OCc3ccccc3)[C@H]3COC(=O)[C@H]23)OCO4)cc(OC)c1O ... 1.2

Switching to the query record.
Query: Entry `CCCCCCO[C@@H]1c2cc3c(cc2[C@@H](c2cc(OC)c(O)c(OC)c2)[C@H]2C(=O)OC[C@@H]21)OCO3` needs its selectivity ratio filled in; supply it.
Response: 0.76
